assay: self-splicing fitness, log relative to wild type (ln ratio); higher = more splicing; Tetrahymena group I intron in knt gene, E. coli kanamycin selection, DiMSum; sequences stand for … in CUCUCU…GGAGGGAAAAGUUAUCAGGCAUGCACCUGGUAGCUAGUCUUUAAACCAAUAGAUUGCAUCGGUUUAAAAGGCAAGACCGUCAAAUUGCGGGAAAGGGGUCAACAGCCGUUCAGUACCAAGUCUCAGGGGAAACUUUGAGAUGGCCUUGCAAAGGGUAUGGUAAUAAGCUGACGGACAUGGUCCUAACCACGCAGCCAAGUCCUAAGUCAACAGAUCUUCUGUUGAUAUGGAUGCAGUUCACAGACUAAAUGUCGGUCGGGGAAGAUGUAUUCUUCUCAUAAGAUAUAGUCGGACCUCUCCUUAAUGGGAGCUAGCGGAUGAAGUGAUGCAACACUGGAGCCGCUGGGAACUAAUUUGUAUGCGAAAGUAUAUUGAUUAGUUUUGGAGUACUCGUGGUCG; conditions: 37 °C;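 note: selection with 25 µg/mL kanamycin versus none on LB agar overnight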
Cut-off -2 on self-splicing fitness (ln), inclusive. At or above means Y; below means N.

Query: Item UUGCAGCAAUAUUACGCUGC with self-splicing fitness (ln) of -2 or above?
Reply: N

Query: Is the recorded value of self-splicing fitness (ln) equal to or greater than -2 for this sequence? GGUUAGCAAUAUUACGCCGU
Reply: Y

Query: Confirm if self-splicing fitness (ln) reported for the sequence UGUUAGCAAUAUUACGUCUA is -2 or above.
Reply: Y

Query: // inclusive: self-splicing fitness (ln) at least -2? input: GACUAGCAAUAUUACGCCCA
Reply: Y

Query: Hello, I need to know if CCAGAGCAAUAUUACGAACC has measured self-splicing fitness (ln) not below -2. Thanks!
Reply: Y

Query: Check the entry UACUAGCAAUAUUACGGCGG : does self-splicing fitness (ln) equal or exceed -2?
Reply: Y

Query: Evaluate ACUAAGCAAUAUUACGACGU : self-splicing fitness (ln) at minimum -2?
Reply: Y

Query: Check this sequence for self-splicing fitness (ln) at or above -2: GACAAGCAAUAUUACGACAG
Reply: N

Query: Threshold query (self-splicing fitness (ln) >= -2) on ACAGAGCAAUAUUACGACGU
Reply: Y

Query: Given UCCAAGCAAUAUUACGCUAG , state whether its self-splicing fitness (ln) is at least -2.
Reply: N

Query: Check the entry AUUUAGCAAUAUUACGGGCA : does self-splicing fitness (ln) equal or exceed -2?
Reply: Y

Query: Can ACCCAGCAAUAUUACGUACA be said to have self-splicing fitness (ln) at or above -2?
Reply: Y

Query: Item ACGGAGCAAUAUUACGUCAC with self-splicing fitness (ln) of -2 or above?
Reply: N

Query: In plain terms: is recorded self-splicing fitness (ln) at least -2 for GCGCAGCAAUAUUACGCAUG ?
Reply: N

Query: Has CGGUAGCAAUAUUACGCGGU a recorded self-splicing fitness (ln) greater than or equal to -2?
Reply: N
